Value source: patent US11684616B2

Entries and their PRKD2 IC50/HPK1 Ki
assayTarget: Human recombinant full-length GST-tagged PRKD2 (PKD2) (Homo sapiens (Human), UniProt Q9BZL6)
Sequence (Q9BZL6 whole entry): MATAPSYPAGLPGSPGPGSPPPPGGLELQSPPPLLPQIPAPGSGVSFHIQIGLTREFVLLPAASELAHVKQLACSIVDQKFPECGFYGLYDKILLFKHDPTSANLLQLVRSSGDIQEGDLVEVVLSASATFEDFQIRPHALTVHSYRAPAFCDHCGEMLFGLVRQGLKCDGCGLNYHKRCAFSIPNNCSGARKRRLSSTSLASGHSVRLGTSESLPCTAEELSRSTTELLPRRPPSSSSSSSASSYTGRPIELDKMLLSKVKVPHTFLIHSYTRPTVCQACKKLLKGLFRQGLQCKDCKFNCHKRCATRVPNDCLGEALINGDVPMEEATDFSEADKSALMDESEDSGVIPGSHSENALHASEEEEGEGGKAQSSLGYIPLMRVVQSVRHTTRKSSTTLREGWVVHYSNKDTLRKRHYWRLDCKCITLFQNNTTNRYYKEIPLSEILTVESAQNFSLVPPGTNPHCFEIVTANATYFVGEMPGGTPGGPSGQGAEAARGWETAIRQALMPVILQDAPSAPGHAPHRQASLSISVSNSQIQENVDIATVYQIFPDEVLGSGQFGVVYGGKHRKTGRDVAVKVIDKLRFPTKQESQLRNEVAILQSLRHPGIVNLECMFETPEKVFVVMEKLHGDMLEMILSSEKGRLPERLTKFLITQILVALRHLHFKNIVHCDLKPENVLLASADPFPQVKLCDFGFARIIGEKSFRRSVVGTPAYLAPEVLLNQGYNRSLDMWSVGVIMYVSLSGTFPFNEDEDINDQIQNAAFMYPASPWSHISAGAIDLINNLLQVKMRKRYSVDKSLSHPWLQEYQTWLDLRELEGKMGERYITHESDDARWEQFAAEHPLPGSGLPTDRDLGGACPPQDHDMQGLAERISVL
test: Biochemical selectivity kinase assay (Z'-LYTE FRET), PRKD2
conditionLabel: ratio of the PRKD2 IC50 to the HPK1 Ki

- compound: "CC[C@H]1CCc2nnc(-c3cccc(N4Cc5c(cc(N6CCC[C@H]6C)nc5CNC)C4=O)n3)n21 [Example 200]"
  PRKD2 IC50/HPK1 Ki: ">160"

[ask] Given CCCn1cnnc1-c1cccc(N2Cc3c(cc(N(C)C)nc3CNC)C2=O)n1 [Example 300] , state its recorded PRKD2 IC50/HPK1 Ki.
[reply] 14

[ask] Given CC[C@H]1CCc2nnc(-c3cccc(N4Cc5c(cc(N(C)C(C)C)nc5[C@@H](C)N)C4=O)n3)n21 [Example 4] , state its recorded PRKD2 IC50/HPK1 Ki.
[reply] >4304

[ask] Given CC[C@H]1CCc2nnc(-c3cccc(N4Cc5c(cc(N6CCC[C@H]6C)nc5[C@H](C)N)C4=O)n3)n21 [Example 3] , state its recorded PRKD2 IC50/HPK1 Ki.
[reply] >130
